Source of measurements: PubChem BioAssay (NCATS)

- protocol.summary: qHTS of pediatric cancer cell lines to identify multiple opportunities for drug repurposing: Primary screen for NB-EBc1 cells (AID 1347095)
- experimental.conditions: NB-EBc1 neuroblastoma viability, CellTiter-Glo luminescence, 48 h; series mostly up to 46 µM
Records with an inconclusive call do not appear. The source made the active and inactive calls. Calls follow the shape of the dose curve; as a rule, active = well fitted cell-killing curve with a large enough effect; inconclusive = small, poorly fitted or top-dose-only effect; inactive = no such curve, though single readings can be large or run the other way.
Labels: Y (active), N (inactive)

compound: CCNC(=O)NCc1cccc(Cl)c1
group: N
--
compound: COc1cc([C@H]2Oc3cc([C@H]4Oc5cc(O)cc(O)c5C(=O)[C@@H]4O)ccc3O[C@@H]2CO)ccc1O
group: N
--
compound: CCC1Nc2cc(Cl)c(S(N)(=O)=O)cc2S(=O)(=O)N1 (stereo unspecified)
group: N
--
compound: COc1ccc(CN(CCN(C)C)c2ncccn2)cc1
group: N
--
compound: CC[C@]12CCCN3CCc4c(n(c5ccccc45)C(=O)C1)[C@@H]32
group: Y
--
compound: C[C@H]1[C@H]2CC[C@H]3[C@@H]4CC=C5C[C@@H](N(C)C)CC[C@]5(C)[C@H]4CC[C@]23CN1C
group: N
--
compound: CCCCC(CC)COC(=O)/C=C/c1ccc(OC)cc1 (stereo unspecified)
group: N
--
compound: O=C(NC1CCN(CCc2c[nH]c3ccccc23)CC1)c1ccccc1
group: N
--
compound: O=C(Nc1cccc(C2=NCCN2)c1)Nc1cccc(C2=NCCN2)c1
group: N
--
compound: CC(=O)OCC(=O)[C@H]1CC[C@H]2[C@@H]3CCC4=CC(=O)CC[C@]4(C)[C@H]3CC[C@]12C
group: N
--
compound: CCC(C(=O)OCCOCCN(CC)CC)c1ccccc1 (stereo unspecified)
group: N
